The reported numbers originate from the supplement of paper PMC10567573.

B1: SNX8 (parent)
chain: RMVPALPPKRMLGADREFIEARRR

variants of: B1; assay: protein stability index of a GFP-peptide fusion (GPS, HEK-293T) (PSI 1-6); higher = more stable; conditions: c terminus: a fixed tail appended;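 further: lentivirally expressed fusions sorted by FACS into six bins by GFP to DsRed ratio, PSI derived from sequencing read proportions per bin multiplied by bin number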
ASSAY READOUT: protein stability index
Hey, just send me the number, nothing else.

INSERT INTO assay_data (alteration, assay_readout, meas_value) VALUES
  ('M11K', 'protein stability index', 3.94),
  ('F18D', 'protein stability index', 4.08),
  ('G13E', 'protein stability index', 3.57),
  ('P4M', 'protein stability index', 3.1),
  ('V3W', 'protein stability index', 1.7);

Sure, the documented protein stability index for R23C is 2.95
